- System: MDA-MB-231 breast
- protocol summary: NCI-60 one-dose screen, 48 h (100 = growth as untreated, 0 = no growth, -100 = all killed)
- condition description: 10 µM unless noted
Compounds without any hit were thinned out: in the full panel of roughly 83,000, 20% have a hit.
# binarize growth: threshold 60% inclusive, high side T, low side F

Prompt line: Is it the case that O=C(NC(CSSCC(NC(=O)c1ccccc1)C(=O)O)C(=O)O)c1ccccc1 (stereo not given) has growth reaching or exceeding 60%?
Response line: T

Prompt line: Check if growth >= 60% (inclusive). Item: `O=C(/C=C/c1ccco1)c1ccc(Nc2nc(Nc3ccc(F)cc3)nc(Nc3ccc(Cl)cc3)n2)cc1`
Response line: F

Prompt line: Can `CN1CCN(CCCOc2ccc3nc(Nc4ccc(F)c(F)c4)ccc3c2)CC1` be said to have growth at or above 60%?
Response line: F

Prompt line: I'd appreciate it if you could say whether `NC(=N\N=C/c1ccccc1[N+](=O)[O-])/C(N)=N\N=C/c1ccccc1[N+](=O)[O-]` has growth at least equal to 60%.
Response line: T

====

- System: SF-539 CNS
- protocol summary: NCI-60 one-dose screen, 48 h (100 = growth as untreated, 0 = no growth, -100 = all killed)
- condition description: 10 µM unless noted
About 83,000 compounds went through this panel and 20% of them were active in at least one assay; those are over-represented in the sample as a whole.
Record t whenever growth is at 20% or higher; record f when lower.

Prompt line: State whether the measured growth reaches 20%, counting equality as reaching it, for CCOc1ccccc1-n1c(CN2CCN(C(=O)COc3ccc(CNCCCCCCN4C5CCCC4CC(OC(=O)Nc4cc(C)ccc4OC)C5)cc3)CC2)nc2ccccc2c1=O (stereo not given)
Response line: f

Prompt line: Given `FC(F)(F)c1cc(Nc2ccc3cc(OCCCN4CCOCC4)ccc3n2)ccc1Cl` , state whether its growth is at least 20%.
Response line: f

Prompt line: Does growth meet or surpass 20% for COc1cc(C2CC(c3ccc(Nc4ccnc5cc(Cl)ccc45)cc3)=NN2C=O)cc(OC)c1OC (stereo not given) ?
Response line: t

Prompt line: API: above_or_equal(metric=growth, cutoff=20%) for item `Cc1cccc(-c2nc(N(C)c3ccc4ncsc4c3)c3ccccc3n2)n1`
Response line: t

Prompt line: Could you please find out whether CC1=CN2C(=O)C3C4=C(CCCC4)SC3N=C2CN1c1c(C)cccc1C (stereo not given) has growth that meets 20% or exceeds it?
Response line: t

Prompt line: Decide: is the reported value of growth for `O=C(c1ccccc1)c1c(/C=C/c2ccc(Cl)cc2)nc2ccccc2c1/C=C/c1cccs1` equal to or greater than 20%?
Response line: t

Prompt line: Determine whether measured growth meets or exceeds 20% for `Cc1cc(C)c2c(-c3nnc(N)s3)cc(=O)oc2c1`
Response line: t

Prompt line: Would you say CN1C(=O)N(C)C2C1NN=c1s/c(=C\c3ccccc3)c(=O)n12 (stereo not given) shows growth at minimum 20%?
Response line: t

Prompt line: Is it the case that `COC(=O)c1c2c(c[n+]([O-])c1C)C(=O)C=CC2=O` has growth reaching or exceeding 20%?
Response line: t

Prompt line: Say whether CC(=O)N1N=C(c2ccc(Nc3nc(Nc4ccc(F)cc4)nc(Nc4ccc(F)cc4)n3)cc2)CC1c1cccc([N+](=O)[O-])c1 (stereo not given) shows growth of 20% or more.
Response line: t

Prompt line: Confirm if growth reported for the compound `N#Cc1c(N)nc2c(C#N)c(NC(=O)c3ccccc3)nn2c1-c1ccccc1` is 20% or above.
Response line: t

Prompt line: Has N#CC1=C(NC=O)Oc2c(ccc3ccccc23)C1c1ccccc1 (stereo not given) a recorded growth greater than or equal to 20%?
Response line: f

Prompt line: Could you verify whether the entry `O=c1c2cc(F)ccc2sc2c(NCCN3CCCCC3)nc3ccccc3c12` shows growth of no less than 20%?
Response line: t

Prompt line: Is it the case that CCSC1=NC2C(N(CC)C(=O)N2CC)N1/N=C/C=C/c1ccccc1[N+](=O)[O-] (stereo not given) has growth reaching or exceeding 20%?
Response line: f

Prompt line: Answer whether growth of `C=C1C(=O)O[C@H]2[C@H]1CC/C(CNC(=O)/C=C/c1ccc(Cl)cc1Cl)=C\CC[C@@]1(C)O[C@@H]21` is greater than or equal to 20%.
Response line: f

Prompt line: Is growth for `COc1cc(N2C(=O)c3nccnc3C2=O)cc(OC)c1OC` at or above 20%?
Response line: t

Prompt line: Could you please find out whether `Cc1ccc(S(=O)(=O)N/N=C\c2cc(Cl)ccc2O)cc1` has growth that meets 20% or exceeds it?
Response line: t

Prompt line: hey, is growth for this one >= 20%? `CCc1c2c(nc3ccc(OC(=O)NCc4ccc(B5OC(C)(C)C(C)(C)O5)cc4)cc13)-c1cc3c(c(=O)n1C2)COC(=O)[C@]3(O)CC`
Response line: f

Prompt line: Determine whether measured growth meets or exceeds 20% for `Cc1cc(NCc2cc(Nc3ccnc4cc(Cl)ccc34)ccc2F)nc(N2CCCC2)n1`
Response line: f
